Measured cytotoxicity at 10 µM of individual entries
Test: Toxicity liver stage against HepG2, at 10uM
Format: cell-based
Set-up: test concentration 10 uM, cell line HepG2-A16-CD81EGFP
Conditions: human, HepG2-A16-CD81EGFP cells; read-out: INHIBITION
Please respond with the number in % and leave the unit unwritten.

// known answers, use as guide
# compound, cytotoxicity at 10 µM, %
records = [
    ("Cc1nnc(CCNC(=O)Nc2ccc(S(C)(=O)=O)cc2)[nH]1", 7.91),
    ("Cc1cc(C(=O)N2CCC(c3nccn3CCCN(C)C)CC2)no1", -12.4),
]

Bench note: what cytotoxicity at 10 µM did CCN(C(c1cccnc1)c1ccc2c(c1)CCO2)S(C)(=O)=O (stereo unspecified) show?
-8.28

Please do the same for `Cc1ccc(CNC(=O)c2ccc(=O)n(C)n2)c(OC2CCCC2)c1` as well.
5.25

Please do the same for Cc1cccc(C(=O)N2CCCC(c3noc(C)n3)C2)n1 (stereo unspecified) as well.
-19.9

###

Experiment: Toxicity liver stage against HepG2, at 10uM
Format: cell-based
Set-up: test concentration 10 uM, cell line HepG2-A16-CD81EGFP
Conditions: human, HepG2-A16-CD81EGFP cells; read-out: INHIBITION
endpointName: cytotoxicity at 10 µM (%)
Please respond with the number in % and leave the unit unwritten.

# molecule, unitName, assayValue
records = [
    ("CNC(=O)[C@H]1C[C@@H]2CN(S(=O)(=O)c3ccc(C)c(F)c3)C[C@@H]2N1C", "%", -3.03),
]

Bench note: what cytotoxicity at 10 µM did `O=C([C@H](O)c1ccccc1)N1CCN(c2cccc(Cl)c2)C(=O)C1` show?
-6.17

Please do the same for Cc1cc(CN2CCN(C(=O)NC(C)c3cccs3)CC2)on1 (centres undefined) as well.
-7.72

Please do the same for `Cc1nc(CN2CCCN(CC(=O)Nc3ccncc3)CC2)no1` as well.
-7.03

Please do the same for CC(=O)N(Cc1noc(C)n1)C1CCN(Cc2ccccn2)C1 (centres undefined) as well.
-5.82

Please do the same for CC1CCCCN1C(=O)COCc1nc(-c2ccncc2)no1 (centres undefined) as well.
1.79

###

Measured cytotoxicity at 10 µM of individual entries
Test: Toxicity liver stage against HepG2, at 10uM
Assay type: cell-based
Design: test concentration 10 uM, cell line HepG2-A16-CD81EGFP
Settings: human, HepG2-A16-CD81EGFP cells; read-out: INHIBITION
Please respond with the number in % and leave the unit unwritten.

# compound, endpointName, unitName, assayValue
records = [
    ("COc1nc(N2CCN(C(C)=O)CC2)ncc1Br", "cytotoxicity at 10 µM", "%", 0.27),
]

Bench note: what cytotoxicity at 10 µM did `Cc1[nH]ncc1CCCNC(=O)N1CCC(C(N)=O)CC1` show?
-3.62

Please do the same for CCCC(=O)NC(C)c1nnc2n1CCC2 (configuration not stated) as well.
-0.645

Please do the same for `OCc1cn([C@@H]2c3ccccc3C3(CCNCC3)[C@H]2O)nn1` as well.
-3.45

Please do the same for `COc1ccc(CN2CCCN(c3cc(C(N)=O)ccn3)CC2)cc1` as well.
11

Please do the same for `COc1ccccc1OCc1nc2cc3c(cc2c(=O)o1)OCCCO3` as well.
1.37

###

Experiment: Toxicity liver stage against HepG2, at 10uM
Assay type: cell-based
Set-up: test concentration 10 uM, cell line HepG2-A16-CD81EGFP
Details: human, HepG2-A16-CD81EGFP cells; read-out: INHIBITION
Measured cytotoxicity at 10 µM of individual entries
Please respond with the number in % and leave the unit unwritten.

// known answers, use as guide
# compound, cytotoxicity at 10 µM / %
data = [
    ("Cc1ccc(F)c(S(=O)(=O)NCc2cccc(C(=O)N3CCCC3)c2)c1", -11.1),
    ("C[C@@H]1CN(C2CCOCC2)C[C@]12CCN(c1cccnc1)C2=O", 5.95),
    ("c1cnc(N2CCC3(COCCN(CC4CCOCC4)C3)C2)nc1 (centres undefined)", -1.56),
    ("Cc1nc(C)n(C2CCCN(C(=O)c3cccnc3NC(C)C)C2)n1 (centres undefined)", -2.28),
]

Bench note: what cytotoxicity at 10 µM did `CN1CCN(C2CCN(CCOc3ccc(C#N)cc3)CC2)C1=O` show?
-1.03

Please do the same for `COCCN1CCn2cc(CNC(=O)c3cnn(C)c3)nc2C1` as well.
-3.09

Please do the same for Cc1cc(NC(=O)CNC2CCc3nc(C(C)C)nn3C2)no1 (centres undefined) as well.
-3.87

###

Test: Toxicity liver stage against HepG2, at 10uM
Format: cell-based
Design: test concentration 10 uM, cell line HepG2-A16-CD81EGFP
Details: human, HepG2-A16-CD81EGFP cells; read-out: INHIBITION
endpointName: cytotoxicity at 10 µM (%)
Please respond with the number in % and leave the unit unwritten.

# compound, assayValue
rows = [
    ("CCOCc1cccc(NC(=O)C2COCCO2)c1 (configuration not stated)", 3.96),
]

Bench note: what cytotoxicity at 10 µM did CCOCC1CN(Cc2cnn(C)c2)Cc2nn(C)cc21 (configuration not stated) show?
2.37

Please do the same for `O=S1(=O)CCCN1Cc1coc(-c2cccs2)n1` as well.
17.5

Please do the same for CC(C)C(=O)N1CCN(Cc2ccccn2)CC2(CC(=O)N(C)C2)C1 (configuration not stated) as well.
0.0515

Please do the same for `Oc1nc(C2CC2)nc2c1nnn2C1CCN(Cc2ccoc2)CC1` as well.
6.01

Please do the same for `Cc1cc(NC(=O)C(C)C)n(-c2nc(C)c(C)c(=O)[nH]2)n1` as well.
43.1

###

Assay: Toxicity liver stage against HepG2, at 10uM
Assay type: cell-based
Parameters: test concentration 10 uM, cell line HepG2-A16-CD81EGFP
Details: human, HepG2-A16-CD81EGFP cells; read-out: INHIBITION
endpointName: cytotoxicity at 10 µM

// known answers, use as guide
# molecule, cytotoxicity at 10 µM
measured = [
    ("O=C(c1csc(Br)c1)N1CCCC(n2ccnc2)C1 (configuration not stated)", "3.51%"),
    ("O=C(N1CCCC1)N1C[C@H]2CC[C@@]3(N=C(c4ccccc4)NC3=O)[C@H]2C1", "0.516%"),
    ("CN(Cc1cccs1)c1nc2c(cnn2C(C)(C)C)c(=O)[nH]1", "9.75%"),
    ("COCCN(Cc1coc(-c2ccc(OC)cc2)n1)C1CC1", "2.1%"),
    ("O=C(C1CC=CC1)N1CCC2(CC1)CNCCO2", "1.46%"),
    ("O=C(CC1CC1)N1CCC2(CC1)CN(Cc1cccnc1)C(=O)CO2", "3.59%"),
    ("CCC(C(=O)N1CCCN(CCN(C)C)CC1)N1CCCC1=O (configuration not stated)", "4.38%"),
    ("Nc1nccnc1C(=O)NC1CCN(Cc2ccccc2)C1 (configuration not stated)", "11.9%"),
    ("CN(CCc1ccncc1)c1cnn(C)c(=O)c1Br", "-5.44%"),
    ("CC1(C)COCCN1C(=O)CCc1nc(-c2ccccn2)no1", "-4.59%"),
]

Bench note: what cytotoxicity at 10 µM did O=C(CC1CCCO1)NCc1ccc(Br)cc1F (configuration not stated) show?
4.72%

Please do the same for `O=S(=O)(NCC1CCN(c2cnccn2)CC1)c1cccs1` as well.
6.28%

###

Assay: Toxicity liver stage against HepG2, at 10uM
Assay type: cell-based
Set-up: test concentration 10 uM, cell line HepG2-A16-CD81EGFP
Conditions: human, HepG2-A16-CD81EGFP cells; read-out: INHIBITION
Measured cytotoxicity at 10 µM of individual entries
Please respond with the number in % and leave the unit unwritten.

# compound, unitName, assayValue
records = [
    ("COc1ccc2c(c1)CCCN2C(=O)c1cccc(N(C)C)c1", "%", 62.8),
    ("CCN(CC)S(=O)(=O)N1CCC(c2c(C(N)=O)sc3ccccc23)C1 (stereo unspecified)", "%", 1.4),
    ("N#Cc1cccc(OCCN2CCn3c(nnc3C3CC3)C2)c1", "%", -7),
    ("Cc1cccc(-n2cc3[nH]c(=O)[nH]n3c2=O)c1", "%", 2.48),
    ("CCc1cnc(N2CCC(=O)N(CC3CC3)C(C(C)C)C2)nc1 (stereo unspecified)", "%", -6.28),
]

Would you kindly look at the next entry?
Bench note: what cytotoxicity at 10 µM did `Cc1ccc(CC(=O)N2CCCn3nnc(Cn4cccn4)c3C2)cc1` show?
9.58

###

Assay: Toxicity liver stage against HepG2, at 10uM
Assay type: cell-based
Design: test concentration 10 uM, cell line HepG2-A16-CD81EGFP
Settings: human, HepG2-A16-CD81EGFP cells; read-out: INHIBITION
endpointName: cytotoxicity at 10 µM (%)
Please respond with the number in % and leave the unit unwritten.

// known answers, use as guide
# compound, endpointName, assayValue
rows = [
    ("N#Cc1ccccc1N1CCCN(CC(=O)Nc2ccc(Cl)cn2)CC1", "cytotoxicity at 10 µM", -0.539),
    ("CN(C)c1ccc(NC(=O)CN2CCS(=O)(=O)CC2)cn1", "cytotoxicity at 10 µM", 6.56),
    ("CCc1c(C)sc2c1c(N)nc(=O)n2CCCN(C)C", "cytotoxicity at 10 µM", 2.06),
    ("O=C1c2cc(Br)cc(Br)c2OCC1(CN1CCCC1)CN1CCCC1", "cytotoxicity at 10 µM", -7.83),
    ("Cc1nc(CCNC(=O)NCc2cccc(N(C)C)n2)cs1", "cytotoxicity at 10 µM", 12),
]

Bench note: what cytotoxicity at 10 µM did `Cc1cc(CN(Cc2ccccc2)C2CC2)on1` show?
0.174

Please do the same for CCn1cnnc1CNC(=O)C1COc2ccc(Cl)cc2C1 (configuration not stated) as well.
-0.845

Please do the same for `Nc1ccnc(N2C[C@H](O)[C@@H](N3CCN(c4ccccn4)CC3)C2)n1` as well.
6.7

Please do the same for `O=C1[C@H]2CN(C3CCOCC3)C[C@H]2CN1Cc1ccncc1` as well.
-124

Please do the same for O=C(CCc1nc2ccccc2[nH]1)NC1CCOC2(CCOCC2)C1 (configuration not stated) as well.
9.64

Please do the same for `CC(C)(O)CN1CC(C)(C)CN(C(=O)CCc2ccccc2)CC1=O` as well.
2.37

Please do the same for `CCCc1cnc(C)nc1N1CCC2(CC1)CNC(=O)O2` as well.
44.6

Please do the same for CCC(N)C(=O)N1CCC(OCc2ccc(Cl)c(Cl)c2)CC1 (configuration not stated) as well.
-12

Please do the same for COc1ccc(CN2CCC=C(C(C)NC(C)=O)C2)cc1 (configuration not stated) as well.
-5.5

Please do the same for `CC(=O)c1cc(CC(=O)NCc2ccsc2)cs1` as well.
2.29

Please do the same for `COc1cc(N2C[C@@H]3COC[C@]3(COc3cccnc3)C2)ncn1` as well.
2.13

Please do the same for `CCc1nc(CN2CCN(C(=O)CCc3ccccc3)CC2)cs1` as well.
5.25

Please do the same for COc1cccc(C(CO)NC(=O)Cc2ccc(F)c(Br)c2)c1 (configuration not stated) as well.
8.44

Please do the same for `c1cncc(COCc2nnc3n2CCN(Cc2cccs2)C3)c1` as well.
0.399

Please do the same for Cc1ccc(CNC(=O)N(C)Cc2ccc([S+](C)[O-])cc2)s1 (configuration not stated) as well.
6.75

Please do the same for Cc1ccc(C(=O)N2CCC3(CCCN(c4ccc(C)nn4)C3)C2)cn1 (configuration not stated) as well.
-112
